The origin of these recorded values is patent US9586951B2.

# subject of test: ATM (Homo sapiens, UniProt Q13315)
# Construct: detecting phosphorylation of Chk2 in a human non-small cell lung cancer cell line NCI-H460 (ATCC company); host or cells: NCI-H460 human non-small cell lung cancer cells
# Sequence (Q13315 whole entry): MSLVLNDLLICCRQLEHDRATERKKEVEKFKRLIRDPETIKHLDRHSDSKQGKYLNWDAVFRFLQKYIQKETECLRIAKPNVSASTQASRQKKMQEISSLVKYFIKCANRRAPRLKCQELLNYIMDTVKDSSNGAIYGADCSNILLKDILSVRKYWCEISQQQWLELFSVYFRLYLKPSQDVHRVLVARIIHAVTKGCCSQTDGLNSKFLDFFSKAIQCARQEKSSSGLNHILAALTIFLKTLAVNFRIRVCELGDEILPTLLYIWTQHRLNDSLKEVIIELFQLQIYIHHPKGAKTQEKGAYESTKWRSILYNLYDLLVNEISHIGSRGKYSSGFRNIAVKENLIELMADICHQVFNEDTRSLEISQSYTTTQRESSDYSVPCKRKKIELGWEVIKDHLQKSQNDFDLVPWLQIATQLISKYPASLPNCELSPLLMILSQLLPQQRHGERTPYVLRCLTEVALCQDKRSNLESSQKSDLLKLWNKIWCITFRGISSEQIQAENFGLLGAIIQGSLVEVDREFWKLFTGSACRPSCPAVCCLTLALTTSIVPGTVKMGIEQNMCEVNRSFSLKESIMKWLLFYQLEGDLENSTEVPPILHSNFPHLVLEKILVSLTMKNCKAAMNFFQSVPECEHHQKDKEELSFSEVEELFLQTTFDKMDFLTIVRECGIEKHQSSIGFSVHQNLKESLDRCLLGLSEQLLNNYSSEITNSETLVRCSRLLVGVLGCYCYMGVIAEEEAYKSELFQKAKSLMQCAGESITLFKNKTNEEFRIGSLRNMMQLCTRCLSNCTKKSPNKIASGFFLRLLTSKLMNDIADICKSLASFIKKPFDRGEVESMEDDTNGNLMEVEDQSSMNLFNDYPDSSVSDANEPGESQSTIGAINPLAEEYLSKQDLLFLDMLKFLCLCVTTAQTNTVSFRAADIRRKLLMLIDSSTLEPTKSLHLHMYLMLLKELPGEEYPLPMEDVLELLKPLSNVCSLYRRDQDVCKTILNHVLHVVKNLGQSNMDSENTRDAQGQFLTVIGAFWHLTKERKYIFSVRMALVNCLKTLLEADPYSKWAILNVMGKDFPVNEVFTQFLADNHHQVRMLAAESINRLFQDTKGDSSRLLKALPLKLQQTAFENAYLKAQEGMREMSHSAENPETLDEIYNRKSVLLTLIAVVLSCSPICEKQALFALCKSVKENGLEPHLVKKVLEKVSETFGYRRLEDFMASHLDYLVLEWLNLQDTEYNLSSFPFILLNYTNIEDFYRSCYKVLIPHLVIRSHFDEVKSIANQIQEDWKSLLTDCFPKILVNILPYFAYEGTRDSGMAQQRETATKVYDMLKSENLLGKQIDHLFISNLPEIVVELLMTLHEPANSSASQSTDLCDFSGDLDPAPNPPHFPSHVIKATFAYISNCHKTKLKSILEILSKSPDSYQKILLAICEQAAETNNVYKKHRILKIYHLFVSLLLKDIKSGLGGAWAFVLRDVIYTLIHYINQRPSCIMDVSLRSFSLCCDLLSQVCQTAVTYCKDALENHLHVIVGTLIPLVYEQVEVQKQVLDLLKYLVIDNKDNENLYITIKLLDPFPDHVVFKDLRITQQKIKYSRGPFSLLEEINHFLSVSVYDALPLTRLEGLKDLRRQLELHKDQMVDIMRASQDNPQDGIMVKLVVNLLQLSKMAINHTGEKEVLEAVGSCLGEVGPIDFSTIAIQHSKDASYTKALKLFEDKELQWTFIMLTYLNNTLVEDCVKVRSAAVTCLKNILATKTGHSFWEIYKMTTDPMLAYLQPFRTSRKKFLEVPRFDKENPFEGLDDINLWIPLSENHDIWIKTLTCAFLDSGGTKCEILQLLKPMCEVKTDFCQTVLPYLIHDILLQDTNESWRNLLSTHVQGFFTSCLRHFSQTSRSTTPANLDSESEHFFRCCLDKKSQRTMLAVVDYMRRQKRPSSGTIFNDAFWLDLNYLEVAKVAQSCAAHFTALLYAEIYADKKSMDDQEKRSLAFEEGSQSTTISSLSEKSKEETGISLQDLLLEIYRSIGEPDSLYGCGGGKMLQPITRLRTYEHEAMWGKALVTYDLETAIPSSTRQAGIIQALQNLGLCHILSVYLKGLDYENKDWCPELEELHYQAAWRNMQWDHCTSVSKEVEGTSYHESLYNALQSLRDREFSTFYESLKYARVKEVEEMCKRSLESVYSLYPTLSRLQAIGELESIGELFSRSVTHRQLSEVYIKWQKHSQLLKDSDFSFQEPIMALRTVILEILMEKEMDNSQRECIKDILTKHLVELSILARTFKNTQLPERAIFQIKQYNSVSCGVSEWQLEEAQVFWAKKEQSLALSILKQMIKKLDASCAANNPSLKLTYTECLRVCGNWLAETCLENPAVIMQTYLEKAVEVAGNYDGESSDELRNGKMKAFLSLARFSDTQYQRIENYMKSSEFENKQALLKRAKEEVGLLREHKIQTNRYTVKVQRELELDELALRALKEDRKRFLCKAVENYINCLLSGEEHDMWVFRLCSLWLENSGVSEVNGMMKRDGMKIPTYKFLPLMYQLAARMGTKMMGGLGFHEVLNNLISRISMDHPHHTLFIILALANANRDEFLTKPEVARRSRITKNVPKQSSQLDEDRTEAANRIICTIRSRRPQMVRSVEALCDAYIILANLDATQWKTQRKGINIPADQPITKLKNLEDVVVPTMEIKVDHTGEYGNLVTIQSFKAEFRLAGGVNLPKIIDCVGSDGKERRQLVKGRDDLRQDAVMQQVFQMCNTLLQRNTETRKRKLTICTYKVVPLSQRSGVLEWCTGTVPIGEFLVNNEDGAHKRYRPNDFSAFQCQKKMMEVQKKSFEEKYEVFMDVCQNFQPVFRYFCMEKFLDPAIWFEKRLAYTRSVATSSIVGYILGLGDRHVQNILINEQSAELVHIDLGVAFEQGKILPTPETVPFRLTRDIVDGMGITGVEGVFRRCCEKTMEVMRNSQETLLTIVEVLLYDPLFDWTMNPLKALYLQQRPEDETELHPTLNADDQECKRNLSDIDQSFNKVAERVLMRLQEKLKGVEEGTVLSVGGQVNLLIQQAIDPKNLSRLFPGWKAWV
# protocol details: ATM inhibition test (phosphorylation of Chk2 generated by ionizing radiation, AlphaScreen SureFire)
# Assay type: cell-based
# test conditions: phosphorylated Chk2 in NCI-H460 cells, ionizing radiation 8Gy, 1 hour after test compound treatment; read-out: ATM inhibitory activity
measurement kind: IC50

Below, 5 molecules whose answers are already recorded.
| molecule | IC50 |
| --- | --- |
| N#Cc1ccnc(CNc2ccc3c(c2)Cc2ccnc(-c4cc(N5CCOCC5)cc(=O)[nH]4)c2O3)c1 [Example 2-41-16] | 100 to 500 nM |
| [N-]=[N+]=NCC(CN1CCOCC1)Nc1ccc2c(c1)Sc1cccc(-c3cc(N4CCOCC4)cc(=O)[nH]3)c1S2 (stereo not shown) [Example 9-1] | 100 to 500 nM |
| CNCCC(Nc1ccc2c(c1)Sc1cccc(-c3cc(N4CCOCC4)cc(=O)[nH]3)c1S2)c1cnc(C)cn1 (stereo not shown) [Example 1-20-11] | 500 to 2000 nM |
| O=c1cc(N2CCOCC2)cc(-c2cccc3c2Oc2ccc(NCc4cncc(Cl)n4)cc2C3)[nH]1 [Example 2-13-1] | 100 to 500 nM |
| CC(CN1CC2(COC2)C1)Nc1ccc2c(c1)Sc1cccc(-c3cc(N4CCOCC4)cc(=O)[nH]3)c1S2 (stereo not shown) [Example 1-43-2] | 100 to 500 nM |

// fetch IC50 given entry Cc1ccc(C(CCCN(C)C)Nc2ccc3c(c2)Sc2cccc(-c4cc(N5CCOCC5)cc(=O)[nH]4)c2S3)nc1 (single isomer, unassigned) [Example 1-51-3] < 100 nM

// fetch IC50 given entry O=C(Nc1ccc2c(c1)Cc1cccc(-c3cc(N4CCOCC4)cc(=O)[nH]3)c1O2)c1cc(Br)ccn1 [Example 2-24] 500 to 2000 nM

// fetch IC50 given entry N#Cc1ccnc(CNc2ccc3c(c2)Cc2cccc(-c4cc(N5CCOCC5)cc(=O)[nH]4)c2O3)c1 [Example 2-14-11] < 100 nM

// fetch IC50 given entry Cc1ccc(C(Nc2ccc3c(c2)Sc2cccc(-c4cc(N5CCOCC5)cc(=O)[nH]4)c2S3)[C@H]2CN(C(=O)CN(C)C)CCO2)nc1 (single isomer, unassigned) [Example 10-1] 100 to 500 nM

// fetch IC50 given entry O=c1cc(N2CCOCC2)cc(-c2cccc3c2Oc2ccc(NCc4cncc(F)c4)cc2C3)[nH]1 [Example 2-2-10] 100 to 500 nM

// fetch IC50 given entry O=c1cc(N2CCOCC2)cc(-c2cccc3c2Sc2ccc(NC4CCCN(Cc5ccncc5)C4)cc2S3)[nH]1 (stereo not shown) [Example 1-24-4] < 100 nM

// fetch IC50 given entry CN(C)Cc1cc(CNc2ccc3c(c2)Cc2cccc(-c4cc(N5CCOCC5)cc(=O)[nH]4)c2O3)ccn1 [Example 2-21-8] 500 to 2000 nM

// fetch IC50 given entry Cc1ccnc(C(C)Nc2ccc3c(c2)Sc2cccc(-c4cc(N5CCOCC5)cc(=O)[nH]4)c2S3)c1 (single isomer, unassigned) [Example 1-12-135-2] < 100 nM
